Biological target: IL-23R (Homo sapiens, UniProt Q5VWK5)
Sequence (Q5VWK5 24-629): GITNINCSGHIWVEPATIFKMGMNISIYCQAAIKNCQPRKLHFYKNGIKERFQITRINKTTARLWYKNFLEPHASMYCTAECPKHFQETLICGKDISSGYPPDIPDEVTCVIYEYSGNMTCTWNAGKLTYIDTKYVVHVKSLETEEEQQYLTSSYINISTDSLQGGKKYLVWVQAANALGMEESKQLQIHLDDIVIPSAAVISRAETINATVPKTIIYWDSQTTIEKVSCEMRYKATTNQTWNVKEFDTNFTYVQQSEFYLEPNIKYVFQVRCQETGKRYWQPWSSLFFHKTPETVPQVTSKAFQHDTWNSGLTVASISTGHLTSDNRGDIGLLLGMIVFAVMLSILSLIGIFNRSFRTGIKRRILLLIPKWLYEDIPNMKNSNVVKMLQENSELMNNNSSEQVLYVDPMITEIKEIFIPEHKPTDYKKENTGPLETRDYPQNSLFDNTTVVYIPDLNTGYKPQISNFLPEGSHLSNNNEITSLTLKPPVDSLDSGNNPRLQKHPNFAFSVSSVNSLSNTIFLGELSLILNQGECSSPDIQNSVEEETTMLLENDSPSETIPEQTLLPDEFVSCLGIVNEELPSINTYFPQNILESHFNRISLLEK
Test: DB cells IL23R pSTAT3 cell assay (pStat3 HTRF)
Assay type: cell-based
Details: Table E3; DB cells, IL-23 0.5 nM, 30 minutes at 37° C.; read-out: pStat3 HTRF (IC50)
Bridge positions count the residues as written; N and C are the ends. Square brackets hold non-standard residues; d marks the D form. Peptide text beside a SMILES is read from it. Trp(7-Me) = Cc1cccc2c(C[C@H](N)C(=O)O)c[nH]c12; 2Nal = N[C@@H](Cc1ccc2ccccc2c1)C(=O)O; AEF = NCCOc1ccc(C[C@H](N)C(=O)O)cc1; Cit = NC(=O)NCCC[C@H](N)C(=O)O; Pen = CC(C)(S)[C@H](N)C(=O)O; αMeK = C[C@](N)(CCCCN)C(=O)O

| compound | test.target | IC50 |
| --- | --- | --- |
| CC(=O)NCCCC[C@H](NC(=O)[C@](C)(CCCCN)NC(=O)[C@H](Cc1ccc2ccccc2c1)NC(=O)[C@H](Cc1ccc(OCCN)cc1)NC(=O)[C@H]1NC(=O)[C@H](CCCNC(N)=O)NC(=O)[C@H](Cc2c[nH]c3c(C)cccc23)NC(=O)[C@H]([C@@H](C)O)NC(=O)[C@H](CC(N)=O)NC(=O)[C@@H](NC(C)=O)C(C)(C)SSC1(C)C)C(=O)N[C@@H](CC(N)=O)C(=O)N[C@@H](Cc1ccc(O)cc1)C(N)=O [compound 266] (Ac-[Pen]NT[Trp(7-Me)][Cit][Pen][AEF][2Nal][αMeK]K(Ac)NY-NH2; disulfide 1-6) | IL-23R (Homo sapiens, UniProt Q5VWK5) | 1 to 10 nM |
| CC(=O)NCCCC[C@H](NC(=O)[C@](C)(CCCCN)NC(=O)[C@H](Cc1ccc2ccccc2c1)NC(=O)[C@H](Cc1ccc(OCCN)cc1)NC(=O)[C@H]1NC(=O)[C@H](CCC(N)=O)NC(=O)[C@H](Cc2c[nH]c3c(C)cccc23)NC(=O)[C@H]([C@@H](C)O)NC(=O)[C@H](CCC(N)=O)NC(=O)[C@@H](NC(C)=O)C(C)(C)SSC1(C)C)C(=O)N[C@@H](CC(N)=O)C(=O)NCCC(N)=O [compound 237] | IL-23R (Homo sapiens, UniProt Q5VWK5) | 1 to 10 nM |
